- Target of assay: HLA-DR (DRA1*01:01 / DRB1*15:01), soluble knob-into-hole Fc heterodimer (human)
- Procedure details: ELISA
No end group written: not given here. *: point of attachment. Biotin = O=C1N[C@H]2[C@H](CS[C@H]2CCCCC(=O)*)N1; Ahx = NCCCCCC(=O)O
Readout: pKd
// pKd here means minus log10 of the molar concentration (mol/L)

Query: Item {Biotin-Ahx}-KPVSKMRMATPLLMQALPM [biotin-labeled human Class II-associated Invariant Chain Peptide (Bio-CLIP)] has what recorded pKd?
Result: 8.67

Cited source for all entries: paper doi:10.1101/2025.06.05.658000
